Target: T1, thioredoxin 1 (Trx1), human, His-tagged, purified (human, UniProt P10599 1-105)
T1 sequence (looked up): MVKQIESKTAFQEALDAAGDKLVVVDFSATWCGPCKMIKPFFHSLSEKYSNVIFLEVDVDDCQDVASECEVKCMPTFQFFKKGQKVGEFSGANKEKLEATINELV
Assay: BLI
pKd: −log10 of the molar value. No end group written: not given here.

- binder: "ETRWPNT (not fully specified (N-terminus); also: biotinylated, position not given here) [biotinylated 2GTP1 peptide (biotin-2GTP1)]"
  pKd: 5.60
